- System: NCI-H292 lung cancer cells
- test summary: FDA drug screening, complete media vs cholesterol-free media with simvastatin (TABLE 2)
- Type: cell-based, human
- settings: NCI-H292 cells, cholesterol-free media with simvastatin 0.04 μM; cell growth value in FDA drug screen
Counter-ions that a name gives are not always drawn.
Label criterion met when Cholesterol-free media + simvastatin (0.04 μM) is at or above 0.9; anything below gets criterion not met.

INPUT: I'd appreciate it if you could say whether OC[C@H]1O[C@@H](O[C@@H]2[C@@H](CO)OC(O)(CO)[C@H]2O)[C@H](O)[C@@H](O)[C@H]1O (mixture of isomers) has Cholesterol-free media + simvastatin (0.04 μM) at least equal to 0.9.
OUTPUT: criterion not met

INPUT: And what about the molecule CN1CCC(=C2c3ccccc3C=Cc3ccccc32)CC1 [Cyproheptadine (hydrochloride sesquihydrate)] ?
OUTPUT: criterion met

INPUT: And for COC(=O)[C@@H]1[C@H]2C[C@H]3c4[nH]c5ccccc5c4CCN3C[C@@H]2CC[C@@H]1O [Yohimbine (Hydrochloride)] ?
OUTPUT: criterion met

INPUT: Another molecule to check: C(=C\c1ccccc1)/CN1CCN(C(c2ccccc2)c2ccccc2)CC1
OUTPUT: criterion met

INPUT: And then COC(=O)C1=C(C)NC(C)=C(C(=O)OCCN2CCN(C(c3ccccc3)c3ccccc3)CC2)C1c1cccc([N+](=O)[O-])c1 (stereo not shown) [Manidipine (dihydrochloride)] , what is it?
OUTPUT: criterion met

INPUT: Please give the result for N[C@@H](Cc1cc(I)c(Oc2cc(I)c(O)c(I)c2)c(I)c1)C(=O)O.[Na] [L-Thyroxine (sodium)] too.
OUTPUT: criterion not met

* * *

- Tested on: NCI-H292 lung cancer cells
- test summary: FDA drug screening, complete media vs cholesterol-free media without statin (TABLE 1)
- Assay type: cell-based, human
- settings: NCI-H292 cells, cholesterol-free media without statin
measurement label: Cholesterol-free

O=C(O[C@H]1CN2CCC1CC2)N1CCc2ccccc2[C@@H]1c1ccccc1 ... 1.142
Nc1ccc(S(=O)(=O)Nc2nccs2)cc1 [Sulfathiazole (sodium)] ... 1.264
C[C@]12CCC3=C4CCC(=O)C=C4CC[C@H]3[C@@H]1CC[C@@]2(O)CC#N ... 1.387
C[C@H](CCC(=O)O)[C@H]1CC[C@H]2[C@@H]3C(=O)C[C@@H]4CC(=O)CC[C@]4(C)[C@H]3CC(=O)[C@]12C [Dehydrocholic acid] ... 1.151

INPUT: What is its Cholesterol-free for NCI-H292 lung cancer cells? Entry: CCOCCn1c(C2CCN(CCc3ccc(C(C)(C)C(=O)O)cc3)CC2)nc2ccccc21
OUTPUT: 1.435

* * *

- Tested on: NCI-H292 lung cancer cells
- test summary: FDA drug screening, complete media vs cholesterol-free media with simvastatin (TABLE 2)
- Format: cell-based, human
- settings: complete media vs cholesterol-free media + simvastatin (0.04 μM); >0 enhanced anti-cancer activity, about 0 neutral, <0 antagonist
Where a name gives a salt, the structure may show the parent alone.
In this section, each of the molecules is paired with its reported Difference.

CC(C)(C)NC(=O)[C@@H]1C[C@@H]2CCCC[C@@H]2CN1C[C@@H](O)[C@H](Cc1ccccc1)NC(=O)[C@H](CC(N)=O)NC(=O)c1ccc2ccccc2n1 ... −0.19
CS(=O)(=O)Nc1cc2occ(NC=O)c(=O)c2cc1Oc1ccccc1 ... −0.47
CC1CCC(C(C)C)C(O)C1 (single isomer, unassigned; (-)) [(−)-Menthol] ... −0.34
O=C1OC(OC(=O)c2cccnc2Nc2cccc(C(F)(F)F)c2)c2ccccc21 (centres unmarked) [Talniflumate] ... −0.25
Cc1cc2cc3c(C)cc(=O)oc3c(C)c2o1 ... −0.08
CC(=O)c1ccc2c(c1)N(CCCN1CCC(CCO)CC1)c1ccccc1S2 ... −0.15

INPUT: Tell me the measured Difference of CC(Oc1c(Cl)cccc1Cl)C1=NCCN1 (centres unmarked) , please.
OUTPUT: −0.27

INPUT: Try this molecule next: Cn1cc[nH]c1=S
OUTPUT: −0.14

INPUT: Lookup CC(C)C(=O)Oc1ccc(CO)cc1[C@H](CCN(C(C)C)C(C)C)c1ccccc1 [Fesoterodine (L-mandelate)]
OUTPUT: −0.11

INPUT: Please answer likewise for Cc1cc(NS(=O)(=O)c2ccc(N)cc2)no1
OUTPUT: −0.17

INPUT: For O=C1c2cccc3c2[C@H](CCC3)CN1[C@@H]1CN2CCC1CC2 [Palonosetron (Hydrochloride)] then?
OUTPUT: −0.26

The reported numbers originate from patent US20250144067A1.
